# assaySystem: Human immunodeficiency virus type 1 protease (Human immunodeficiency virus 1, UniProt Q72874)
# experimentDescription: Inhibition of recombinant HIV1 Protease
pIC50: −log10 of the molar value. Where a SMILES comes first, the peptide text is derived from it. Bridges are numbered along the chain shown (N, C = ends). Roman numbers before positions name the chains, in order. The star is where a group is joined. C16 diacid = O=C(O)CCCCCCCCCCCCCCC(=O)*; NHPhenethyl = c1ccc(CCN*)cc1
I would appreciate it if you labelled entries criterion met when pIC50 is 6 or higher, otherwise criterion not met.

Task: Has `C[C@H](Cc1cc2c(cc1O)OCO2)[C@H](C)Cc1cc2c(cc1O)OCO2` a recorded pIC50 greater than or equal to 6?
Output: criterion not met

Task: What do you have for `COc1ccc(S(=O)(=O)N(CC(C)C)C[C@@H](O)[C@H](Cc2ccccc2)n2cc(COC(=O)N[C@H]3c4ccccc4C[C@H]3O)nn2)cc1` ?
Output: criterion met

Task: What do you have for `CC(C)C[C@H](NC(=O)[C@@H](NC(=O)CCCCCCCCCCCCCCC(=O)N[C@@H](CC(N)=O)C(=O)N[C@@H](Cc1ccccc1)C(=O)O)[C@@H](C)O)C(=O)NCCc1ccc(N)cc1` ?
Output: criterion met

Task: What do you have for CC(C)C[C@H](NC(=O)[C@@H](NC(=O)CCCCCCCCCCCCCCC(=O)N[C@@H](CC(N)=O)C(=O)N[C@@H](Cc1ccccc1)C(=O)O)[C@@H](C)O)C(=O)NCCc1ccccc1 (I: Asn-Phe-OH / II: Thr-Leu-NHPhenethyl; linker I:N-II:N via C16 diacid) ?
Output: criterion not met

Task: What do you have for `COc1ccc(S(=O)(=O)N(CC(C)C)C[C@@H](O)[C@H](Cc2ccccc2)n2cc(CNC(=O)c3ccc(CNC(=O)OC(C)(C)C)cc3)nn2)cc1` ?
Output: criterion met

Task: What do you have for `CC(C)C[C@H](NC(=O)[C@@H](NC(=O)CCCCCCCCCCCCCCC(=O)N[C@@H](CC(N)=O)C(=O)N[C@@H](Cc1ccccc1)C(=O)O)[C@@H](C)O)C(=O)NCCc1ccc(Oc2ccc(O)cc2)cc1` ?
Output: criterion met

###

Kindly state Ratio EC50 for each of the entries shown.
# Tested on: Human immunodeficiency virus 1
# experimentDescription: Ratio of EC50 for antiviral activity against HIV1-C to EC50 for antiviral activity against wild type HIV1 ERS104pre
# Assay type: functional

Task: Name the recorded Ratio EC50 for `CC(C)CN(C[C@@H](O)[C@H](Cc1ccccc1)NC(=O)O[C@H]1CO[C@H]2OCC(F)(F)[C@H]21)S(=O)(=O)c1ccc(N)cc1` .
Output: 1

Task: What do you have for `COc1ccc(S(=O)(=O)N(CC(C)C)C[C@@H](O)[C@H](Cc2ccccc2)NC(=O)O[C@H]2CO[C@H]3O[C@@H]4OCC[C@@H]4[C@H]32)cc1` ?
Output: 1

Task: What do you have for `CC(C)CN(C[C@@H](O)[C@H](Cc1ccccc1)NC(=O)O[C@H]1CO[C@H]2OCC[C@H]21)S(=O)(=O)c1ccc2c(c1)OCO2` ?
Output: 5

Task: What do you have for `CC(C)CN(C[C@@H](O)[C@H](Cc1ccccc1)NC(=O)O[C@H]1CO[C@H]2OCC[C@H]21)S(=O)(=O)c1ccc(N)cc1` ?
Output: 2

###

Kindly state EC50 for each of the entries shown.
# Test system: Human immunodeficiency virus 1
# experimentDescription: Antiviral activity against HIV1 T13717 infected in human MT4 cells expressing LTR and EGFP assessed as inhibition of virus-induced cytopathic effect by fluorescence microscopic analysis
# Type: functional, organism-based
# experimentalContext: Human immunodeficiency virus 1, T13717, MT4
The figure you give is taken to be in nM; do not add the unit.

Task: Name the recorded EC50 for `CC(C)CN(C[C@@H](O)[C@H](Cc1ccccc1)NC(=O)O[C@H]1CO[C@H]2OCC[C@H]21)S(=O)(=O)c1ccc2sc(NC3CCN(C4CCCC4)CC3)nc2c1` .
Output: 68

Task: What do you have for `Cc1cccc(C)c1OCC(=O)N[C@@H](Cc1ccccc1)[C@@H](O)C[C@H](Cc1ccccc1)NC(=O)[C@H](C(C)C)N1CCCNC1=O` ?
Output: 1900

Task: What do you have for `CC(C)CN(C[C@@H](O)[C@H](Cc1ccccc1)NC(=O)O[C@H]1CO[C@H]2OCC[C@H]21)S(=O)(=O)c1ccc(N)cc1` ?
Output: 670

###

# experimentDescription: Clearance in dog at 1 mg/kg, iv
# Assay type: ADME, organism-based, Canis lupus familiaris
# experimentalContext: in vivo
assayReadout: clearance (mL/min/kg)
The figure you give is taken to be in mL/min/kg; do not add the unit.

Task: Name the recorded clearance for `CCCN([C@H](CO)CCC[C@H](C)NC(=O)[C@@H](NC(=O)OC)C(c1ccccc1)c1ccccc1)S(=O)(=O)c1ccc(N)cc1` .
Output: 5.3

Task: What do you have for `CCCN([C@H](CO)CCC[C@@H](NC(=O)[C@@H](NC(=O)OC)C(c1ccccc1)c1ccccc1)C(F)(F)F)S(=O)(=O)c1ccc(N)cc1` ?
Output: 4.7

Task: What do you have for `CC[C@@H](CCC[C@@H](CO)N(CCC(C)C)S(=O)(=O)c1ccc(N)cc1)NC(=O)[C@@H](NC(=O)OC)C(c1ccccc1)c1ccccc1` ?
Output: 10.1

###

# experimentDescription: Apparent permeability in rat astrocytes/rat pericytes/monkey endothelial cells triple cell co-culture system incubated for 30 mins by spectrophotometric analysis
# Type: ADME, cell-based
assayReadout: Papp at 0.5 h
Please answer in the form of a number followed by its unit of measurement.

Task: Name the recorded Papp at 0.5 h for `COc1ccc(S(=O)(=O)N(CC(C)C)C[C@@H](O)[C@H](Cc2ccccc2)NC(=O)O[C@H]2CO[C@H]3OCC(F)(F)[C@H]32)cc1` .
Output: 61.8 ×10⁻⁶ cm/s

Task: What do you have for `CC(C)CN(C[C@@H](O)[C@H](Cc1ccccc1)NC(=O)O[C@H]1CO[C@H]2OCC(F)(F)[C@H]21)S(=O)(=O)c1ccc(N)cc1` ?
Output: 47.8 ×10⁻⁶ cm/s

Task: What do you have for `Cn1c(=O)c2c(ncn2C)n(C)c1=O` ?
Output: 100 ×10⁻⁶ cm/s

###

Kindly state EC50 for each of the entries shown.
# Test system: Human immunodeficiency virus 1
# experimentDescription: Antiviral activity against multidrug-resistant HIV1-B infected in phytohemagglutinin-activated human PBMC cells assessed as inhibition of virus-induced cytopathic effect measured after 7 days by MTT assay
# Format: functional, organism-based
# experimentalContext: Human immunodeficiency virus 1, B, 168 h
The figure you give is taken to be in nM; do not add the unit.

Task: Name the recorded EC50 for `CC(C)(C)NC(=O)[C@@H]1C[C@@H]2CCCC[C@@H]2CN1C[C@@H](O)[C@H](Cc1ccccc1)NC(=O)[C@H](CC(N)=O)NC(=O)c1ccc2ccccc2n1` .
Output: 270

Task: What do you have for `CC(C)CN(C[C@@H](O)[C@H](Cc1ccccc1)NC(=O)O[C@H]1CCOC1)S(=O)(=O)c1ccc(N)cc1` ?
Output: 360

Task: What do you have for `COc1ccc(S(=O)(=O)N(CC(C)C)C[C@@H](O)[C@H](Cc2ccccc2)NC(=O)O[C@H]2CO[C@H]3OCC(F)(F)[C@H]32)cc1` ?
Output: 14

Task: What do you have for `CC(C)CN(C[C@@H](O)[C@H](Cc1ccccc1)NC(=O)O[C@H]1CO[C@H]2OCC(F)(F)[C@H]21)S(=O)(=O)c1ccc(N)cc1` ?
Output: 11

Task: What do you have for `COc1ccc(S(=O)(=O)N(CC(C)C)C[C@@H](O)[C@H](Cc2ccccc2)NC(=O)O[C@H]2CO[C@H]3O[C@@H]4OCC[C@@H]4[C@H]32)cc1` ?
Output: 3.4

Task: What do you have for `COC(=O)N[C@H](C(=O)N[C@@H](Cc1ccccc1)[C@@H](O)CN(Cc1ccc(-c2ccccn2)cc1)NC(=O)[C@@H](NC(=O)OC)C(C)(C)C)C(C)(C)C` ?
Output: 450

Task: What do you have for `CC(C)CN(C[C@@H](O)[C@H](Cc1ccccc1)NC(=O)O[C@H]1CO[C@H]2OCC[C@H]21)S(=O)(=O)c1ccc2c(c1)OCO2` ?
Output: 3.9

Task: What do you have for `COc1ccc(S(=O)(=O)N(CC(C)C)C[C@@H](O)[C@H](Cc2ccccc2)NC(=O)O[C@@H]2CO[C@@H]3O[C@H]4OCC[C@H]4[C@@H]32)cc1` ?
Output: 612

Task: What do you have for `CC(C)CN(C[C@@H](O)[C@H](Cc1ccccc1)NC(=O)O[C@H]1CO[C@H]2OCC[C@H]21)S(=O)(=O)c1ccc(N)cc1` ?
Output: 21

###

# Test system: Human immunodeficiency virus 1
# experimentDescription: Antiviral activity against multidrug-resistant HIV1-C infected in phytohemagglutinin-activated human PBMC cells assessed as inhibition of virus-induced cytopathic effect measured after 7 days by MTT assay
# Type: functional, organism-based
# experimentalContext: Human immunodeficiency virus 1, C, 168 h
pEC50: −log10 of the molar value.
I would appreciate it if you labelled entries t when pEC50 is 8 or higher, otherwise f.

Task: Has `CC(C)CN(C[C@@H](O)[C@H](Cc1ccccc1)NC(=O)O[C@H]1CO[C@H]2OCC[C@H]21)S(=O)(=O)c1ccc(N)cc1` a recorded pEC50 greater than or equal to 8?
Output: t

Task: What do you have for `CC(C)CN(C[C@@H](O)[C@H](Cc1ccccc1)NC(=O)O[C@H]1CCOC1)S(=O)(=O)c1ccc(N)cc1` ?
Output: f

Task: What do you have for `COc1ccc(S(=O)(=O)N(CC(C)C)C[C@@H](O)[C@H](Cc2ccccc2)NC(=O)O[C@@H]2CO[C@@H]3O[C@H]4OCC[C@H]4[C@@H]32)cc1` ?
Output: f

Task: What do you have for Cc1cccc(C)c1OCC(=O)N[C@@H](Cc1ccccc1)[C@@H](O)C[C@H](Cc1ccccc1)NC(=O)[C@H](C(C)C)N1CCCNC1=O [LOPINAVIR] ?
Output: f

Task: What do you have for `COc1ccc(S(=O)(=O)N(CC(C)C)C[C@@H](O)[C@H](Cc2ccccc2)NC(=O)O[C@H]2CO[C@H]3O[C@@H]4OCC[C@@H]4[C@H]32)cc1` ?
Output: t

Task: What do you have for `CC(C)CN(C[C@@H](O)[C@H](Cc1ccccc1)NC(=O)O[C@H]1CO[C@H]2OCC(F)(F)[C@H]21)S(=O)(=O)c1ccc(N)cc1` ?
Output: t
